molecules and their reported Hipp-Glu (% conversion)
Assay: Conversion of Hipp-Glu by purified HCPB mutants, 30 minutes, HPLC (Example 17)
Type: biochemical
Details: enzyme 25 μg/ml; 0.5 mM substrate; 30 minutes at 37° C.

Request: Form field: reported Hipp-Glu (% conversion) of [G251N,D253K]: HCPB mutant with G251N and D253K, (His)6-c-myc tag (protein, UniProt P15086 111-417, looked up, variant G251N D253K, (His)6-c-myc tag) Carboxypeptidase B: ATGHSYEKYNKWETIEAWTQQVATENPALISRSVIGTTFEGRAIYLLKVGKAGQNKPAIFMDCGFHAREWISPAFCQWFVREAVRTYGREIQVTELLDKLDFYVLPVLNIDGYIYTWTKSRFWRKTRSTHTGSSCIGTDPNRNFDAGWCEIGASRNPCDETYCGPAAESEKETKALADFIRNKLSSIKAYLTIHSYSQMMIYPYSYAYKLGENNAELNALAKATVKELASLHGTKYTYGPGATTIYPAAGNSKDWAYDQGIRYSFTFELRDTGRYGFLLPESQIRATCEETFLAIKYVASYVLEHLY
Response: 100%

Request: Form field: reported Hipp-Glu (% conversion) of [I201S, D253K]: HCPB mutant with I201S and D253K (protein, UniProt P15086 111-417, looked up, variant I201S D253K) Carboxypeptidase B: ATGHSYEKYNKWETIEAWTQQVATENPALISRSVIGTTFEGRAIYLLKVGKAGQNKPAIFMDCGFHAREWISPAFCQWFVREAVRTYGREIQVTELLDKLDFYVLPVLNIDGYIYTWTKSRFWRKTRSTHTGSSCIGTDPNRNFDAGWCEIGASRNPCDETYCGPAAESEKETKALADFIRNKLSSIKAYLTIHSYSQMMSYPYSYAYKLGENNAELNALAKATVKELASLHGTKYTYGPGATTIYPAAGGSKDWAYDQGIRYSFTFELRDTGRYGFLLPESQIRATCEETFLAIKYVASYVLEHLY
Response: 27.8%

Request: Form field: reported Hipp-Glu (% conversion) of [G251S, D253K]: HCPB mutant with G251S and D253K, (His)6-c-myc tag (protein, UniProt P15086 111-417, looked up, variant G251S D253K, (His)6-c-myc tag) Carboxypeptidase B: ATGHSYEKYNKWETIEAWTQQVATENPALISRSVIGTTFEGRAIYLLKVGKAGQNKPAIFMDCGFHAREWISPAFCQWFVREAVRTYGREIQVTELLDKLDFYVLPVLNIDGYIYTWTKSRFWRKTRSTHTGSSCIGTDPNRNFDAGWCEIGASRNPCDETYCGPAAESEKETKALADFIRNKLSSIKAYLTIHSYSQMMIYPYSYAYKLGENNAELNALAKATVKELASLHGTKYTYGPGATTIYPAAGSSKDWAYDQGIRYSFTFELRDTGRYGFLLPESQIRATCEETFLAIKYVASYVLEHLY
Response: 100%

// next item, Hipp-Glu (% conversion) requested
Request: Form field: reported Hipp-Glu (% conversion) of [G251T,D253K]: HCPB mutant with G251T and D253K, (His)6-c-myc tag (protein, UniProt P15086 111-417, looked up, variant G251T D253K, (His)6-c-myc tag) Carboxypeptidase B: ATGHSYEKYNKWETIEAWTQQVATENPALISRSVIGTTFEGRAIYLLKVGKAGQNKPAIFMDCGFHAREWISPAFCQWFVREAVRTYGREIQVTELLDKLDFYVLPVLNIDGYIYTWTKSRFWRKTRSTHTGSSCIGTDPNRNFDAGWCEIGASRNPCDETYCGPAAESEKETKALADFIRNKLSSIKAYLTIHSYSQMMIYPYSYAYKLGENNAELNALAKATVKELASLHGTKYTYGPGATTIYPAAGTSKDWAYDQGIRYSFTFELRDTGRYGFLLPESQIRATCEETFLAIKYVASYVLEHLY
Response: 100%

Source listed as patent US6436691B1.
